Values compiled from PubChem BioAssay.

Protocol Description: probe aLAP1 signal on lysate-treated microarray – cell lysate, small-molecule microarray, COS7 lysate, primary screen (AID 1124);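 further: lysate comes from COS7 cells expressing LAP1 and is applied at 0.3 µg/mL; score merges spot fluorescence near 667 nm with signal-to-noise over triplicate slides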
Recorded Conditions: probe aLAP1, fluorescence, higher = more signal
Kindly supply the reported composite z-score values for the records listed here.
Numbers only.

Record excerpt, results attached:
Molecule	composite z-score
[N-]=[N+]=Nc1ccccc1C[C@]1(C(=O)N2CCCCC2)COC(c2ccc(OCCCO)cc2)=N1	0.236
CO[C@H]1O[C@H](CO)[C@@H](OC(=O)Nc2cccc(F)c2)[C@H](OC(=O)Nc2ccccc2)[C@H]1OC(=O)Nc1ccccc1	0.168
C#CCN(C/C=C/c1ccccc1)[C@H](CO)c1ccccc1	-0.0886
CC(C)(C)OC(=O)CC[C@@]1(C(=O)N2CCCCC2)N=C(c2ccc(OCCCO)cc2)O[C@@H]1c1ccccc1	0.796
CC(c1ccccc1)C(O)C1C=CC2C(=O)N(c3ccccc3)C(=O)C2N1Nc1ccccc1 (stereo not drawn)	0.426
C[N+](C)(C)CCCC[C@@H]1NC(=O)[C@H]2C[C@@H](C(=O)NCCCCCCNC(=O)CS)[C@@H](c3ccc(O)cc3)N2C1=O	1.49
COc1ccc([Si](C)(C)[C@@H]2[C@@H](CC(=O)N3CCC[C@H]3CO)O[C@]3(C(=O)N(Cc4cccc(I)c4)c4ccccc43)[C@H]2C)cc1	0.0817

Pending molecule:
Consider COc1cc2c(cc1O)C=[N+](Cc1cc3c(cc1Br)OCO3)CC2 . Its measured composite z-score is 0.27
